The following molecules have recorded AC50 on Sodium-dependent dopamine transporter (Homo sapiens, UniProt Q01959).
Sequence (Q01959 whole entry): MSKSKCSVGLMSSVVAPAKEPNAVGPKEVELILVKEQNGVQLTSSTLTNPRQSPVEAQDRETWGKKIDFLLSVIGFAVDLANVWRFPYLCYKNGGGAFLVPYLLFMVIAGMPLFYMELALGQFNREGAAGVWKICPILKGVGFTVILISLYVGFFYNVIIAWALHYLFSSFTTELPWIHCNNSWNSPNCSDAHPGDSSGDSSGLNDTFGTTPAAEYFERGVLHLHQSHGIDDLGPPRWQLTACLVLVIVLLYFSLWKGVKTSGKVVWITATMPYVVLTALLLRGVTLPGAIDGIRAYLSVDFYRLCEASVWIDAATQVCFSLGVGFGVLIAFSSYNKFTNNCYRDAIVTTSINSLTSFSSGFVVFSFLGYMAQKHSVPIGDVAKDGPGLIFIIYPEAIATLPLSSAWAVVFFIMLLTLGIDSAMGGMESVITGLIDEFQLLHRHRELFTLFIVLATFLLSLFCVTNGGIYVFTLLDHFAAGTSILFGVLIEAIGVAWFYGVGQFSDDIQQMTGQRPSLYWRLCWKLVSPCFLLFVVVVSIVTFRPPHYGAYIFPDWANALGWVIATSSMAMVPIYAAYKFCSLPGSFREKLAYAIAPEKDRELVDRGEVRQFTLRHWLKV

| molecule | AC50 |
| --- | --- |
| COC(=O)C1=C(C)NC(C)=C(C(=O)OCC(C)C)C1c1ccccc1[N+](=O)[O-] (centres undefined) | > 10 µM |
| CN1C(=O)COc2c(C(=O)NC3CN4CCC3CC4)cc(Cl)cc21 (centres undefined) | > 30 µM |
| O=C(O)c1cc(-c2ccc(F)cc2F)ccc1O | > 10 µM |
| CCCOc1ccc(C(=O)OCCN(CC)CC)cc1N | > 30 µM |
| CN(C/C=C/c1ccccc1)Cc1cccc2ccccc12 | 17.3 µM |
| CCc1ccc(CCOc2ccc(CC3SC(=O)NC3=O)cc2)nc1 (centres undefined) | > 30 µM |
| COc1ccc(C(=O)N2CCN(c3ccc4c(c3)CCC(=O)N4)CC2)cc1OC | > 30 µM |
| N[C@@H](CSCC(=O)O)C(=O)O | > 30 µM |
| C[C@H]1C[C@@H]2[C@H]([C@@H](O)C[C@@]3(C)[C@H]2CC[C@]3(O)C(=O)CO)[C@@]2(C)C=CC(=O)C=C12 | > 10 µM |
| CC(C)(C(=O)c1cccnc1)c1cccnc1 | > 10 µM |
| N[C@@H](C(=O)N[C@@H]1C(=O)N2C(C(=O)O)=C(Cl)CS[C@H]12)c1ccccc1 [CEFACLOR ANHYDROUS] | > 30 µM |
| O=C1NCCN1CCN1CCC(c2cn(-c3ccc(F)cc3)c3ccc(Cl)cc23)CC1 | 1.7 µM |
| Nc1nc(N)c2nc(-c3ccccc3)c(N)nc2n1 | > 30 µM |
| O=C(NC[C@H]1CN(c2ccc(N3CCOCC3=O)cc2)C(=O)O1)c1ccc(Cl)s1 | > 30 µM |
| CCOC(=O)[C@H](CCc1ccccc1)N[C@@H](C)C(=O)N1CCC[C@H]1C(=O)O | > 10 µM |
| O=C(O)CCCc1ccccc1 | 3.2 µM |
| CCCCCCC(C)(C)c1cc(O)c2c(c1)OC(C)(C)C1CCC(=O)CC21 (centres undefined) | 16 µM |
| CC(C)Cc1ccc(CC(=O)O)cc1 | > 30 µM |
| CN1CCCC(n2nc(Cc3ccc(Cl)cc3)c3ccccc3c2=O)CC1 (centres undefined) | 7.3 µM |

###

# AC50 per record follows
- system_under_test: Alpha-2A adrenergic receptor (Homo sapiens); further: assay procedure not described here
- Sequence (P08913 whole entry): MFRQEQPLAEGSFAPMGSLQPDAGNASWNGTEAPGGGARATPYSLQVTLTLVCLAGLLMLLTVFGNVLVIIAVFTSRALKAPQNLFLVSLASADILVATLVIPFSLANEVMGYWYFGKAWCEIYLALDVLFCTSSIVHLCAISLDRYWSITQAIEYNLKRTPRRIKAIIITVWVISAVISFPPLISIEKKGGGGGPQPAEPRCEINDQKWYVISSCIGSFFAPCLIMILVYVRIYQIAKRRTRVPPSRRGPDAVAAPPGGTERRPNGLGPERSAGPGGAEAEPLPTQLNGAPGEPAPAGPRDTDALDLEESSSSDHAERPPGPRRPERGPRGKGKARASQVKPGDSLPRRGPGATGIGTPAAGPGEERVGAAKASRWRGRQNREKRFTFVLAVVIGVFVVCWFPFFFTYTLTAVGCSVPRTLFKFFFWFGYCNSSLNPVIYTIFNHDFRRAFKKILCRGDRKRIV
- Type: functional, cell-based

| molecule | AC50 |
| --- | --- |
| CN1CCc2cccc3c2[C@H]1Cc1ccc(O)c(O)c1-3 | > 10 µM |
| CN(C/C=C/c1ccccc1)Cc1cccc2ccccc12 | > 10 µM |
| CC(=O)OCC(=O)[C@@]12OC3(CCCC3)O[C@@H]1C[C@H]1[C@@H]3CCC4=CC(=O)C=C[C@]4(C)[C@@]3(F)[C@@H](O)C[C@@]12C [AMCINONIDE] | > 10 µM |
| CCCCCN(C)CCC(O)(P(=O)(O)O)P(=O)(O)O | > 30 µM |
| CNC(=O)c1cc(Oc2ccc(NC(=O)Nc3ccc(Cl)c(C(F)(F)F)c3)cc2)ccn1 | > 30 µM |
| NC1=NC(=O)C(c2ccccc2)O1 (stereo not drawn) | > 10 µM |
| COC(=O)N[C@H](C(=O)N1CCC[C@H]1c1nc(-c2ccc(-c3ccc(-c4c[nH]c([C@@H]5CCCN5C(=O)[C@@H](NC(=O)OC)C(C)C)n4)cc3)cc2)c[nH]1)C(C)C | > 30 µM |
| COC(=O)[C@@H]1CC2=CC(=O)CC[C@]2(C)[C@@]23O[C@@H]2C[C@@]2(C)[C@@H](CC[C@@]24CCC(=O)O4)[C@H]13 | > 30 µM |

###

- system_under_test: Alpha-2C adrenergic receptor (Homo sapiens); further: assay procedure not described here
- Sequence (P18825 whole entry): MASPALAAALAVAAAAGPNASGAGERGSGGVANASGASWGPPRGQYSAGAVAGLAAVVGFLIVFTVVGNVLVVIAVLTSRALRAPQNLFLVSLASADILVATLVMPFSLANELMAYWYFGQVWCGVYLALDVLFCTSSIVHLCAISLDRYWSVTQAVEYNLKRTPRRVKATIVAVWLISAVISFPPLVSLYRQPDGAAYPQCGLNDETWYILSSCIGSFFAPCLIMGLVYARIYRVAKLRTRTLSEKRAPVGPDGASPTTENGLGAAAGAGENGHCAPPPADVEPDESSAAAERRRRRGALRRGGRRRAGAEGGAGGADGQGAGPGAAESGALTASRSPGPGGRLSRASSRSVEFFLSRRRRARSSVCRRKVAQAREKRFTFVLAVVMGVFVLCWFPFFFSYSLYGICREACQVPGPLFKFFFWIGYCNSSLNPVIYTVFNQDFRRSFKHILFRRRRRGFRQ
- Type: functional

| compound | AC50 |
| --- | --- |
| C[C@]12CCC(=O)C=C1CC[C@@H]1[C@@H]2CC[C@@]2(C)[C@H]1CC[C@]2(C)O [METHYLTESTOSTERONE] | > 30 µM |
| CN(CCCN1c2ccccc2CCc2ccccc21)CC(=O)c1ccc(Cl)cc1 [LOFEPRAMINE] | 17 µM |
| O=C(CCCCCCC(=O)Nc1ccccc1)NO [VORINOSTAT] | > 30 µM |
| O=C(NC[C@H]1CN(c2ccc(N3CCOCC3=O)cc2)C(=O)O1)c1ccc(Cl)s1 [RIVAROXABAN] | > 30 µM |
| CC(C)C(=O)Nc1ccc([N+](=O)[O-])c(C(F)(F)F)c1 [FLUTAMIDE] | > 10 µM |
| CC(C)Cc1ccc(CC(=O)O)cc1 [IBUFENAC] | > 30 µM |
| C#CCN[C@@H]1CCc2ccccc21 [RASAGILINE] | 21 µM |
| CCCC(=O)N1CCCN(c2nc(N)c3cc(OC)c(OC)cc3n2)CC1 [BUNAZOSIN] | 0.55 µM |
| NC(=O)c1cnccn1 [PYRAZINAMIDE] | > 30 µM |
| CCC[C@@H]1C[C@@H](C(=O)N[C@@H]([C@H]2O[C@H](SC)[C@H](O)[C@@H](O)[C@H]2O)[C@H](C)Cl)N(C)C1 [CLINDAMYCIN] | > 10 µM |
| CCCCCCCCCCCC[N+](C)(C)CCOc1ccccc1 [DOMIPHEN] | 4.2 µM |
| CS(=O)(=O)Nc1cc2occ(NC=O)c(=O)c2cc1Oc1ccccc1 [IGURATIMOD] | > 30 µM |
| CCC(C(=O)O)c1ccc(CC(C)C)cc1 (centres undefined) [BUTIBUFEN] | > 30 µM |
| C[C@H]1C[C@@H]2[C@H]([C@@H](O)C[C@@]3(C)[C@H]2CC[C@]3(O)C(=O)COC(=O)CCC(=O)O)[C@@]2(C)C=CC(=O)C=C12 [METHYLPREDNISOLONE HEMISUCCINATE] | > 30 µM |
| NS(=O)(=O)c1cc2c(cc1Cl)NC(CC1CCCC1)NS2(=O)=O (centres undefined) [CYCLOPENTHIAZIDE] | > 30 µM |
| Cc1c(Cl)cccc1Nc1ccccc1C(=O)O [TOLFENAMIC ACID] | > 30 µM |
| CNC(=O)c1cc(Oc2ccc(NC(=O)Nc3ccc(Cl)c(C(F)(F)F)c3)cc2)ccn1 [SORAFENIB] | > 30 µM |
| Nc1nc(N)c2nc(-c3ccccc3)c(N)nc2n1 | > 30 µM |
| CCN(CC)CCOC(=O)c1ccc(N)cc1 [PROCAINE] | > 10 µM |

###

- system_under_test: Prostaglandin G/H synthase 1 (Homo sapiens); further: assay procedure not described here
- Sequence (P23219 whole entry): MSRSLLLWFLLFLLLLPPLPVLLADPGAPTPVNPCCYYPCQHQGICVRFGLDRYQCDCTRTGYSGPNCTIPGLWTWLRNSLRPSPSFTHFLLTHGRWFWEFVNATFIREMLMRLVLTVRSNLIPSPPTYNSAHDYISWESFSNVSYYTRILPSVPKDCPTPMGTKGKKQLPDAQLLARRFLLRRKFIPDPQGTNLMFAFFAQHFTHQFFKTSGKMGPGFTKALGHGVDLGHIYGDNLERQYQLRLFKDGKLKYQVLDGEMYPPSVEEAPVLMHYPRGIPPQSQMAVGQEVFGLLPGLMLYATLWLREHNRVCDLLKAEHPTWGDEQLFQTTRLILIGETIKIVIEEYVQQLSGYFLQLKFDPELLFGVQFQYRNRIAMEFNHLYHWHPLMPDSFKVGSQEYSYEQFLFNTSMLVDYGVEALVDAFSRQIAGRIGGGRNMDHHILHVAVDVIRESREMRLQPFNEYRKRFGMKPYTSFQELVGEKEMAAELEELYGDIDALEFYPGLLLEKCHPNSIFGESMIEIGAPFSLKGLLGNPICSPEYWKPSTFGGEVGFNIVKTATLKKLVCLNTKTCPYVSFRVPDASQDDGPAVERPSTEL
- Format: functional

| compound | AC50 |
| --- | --- |
| Cc1ccc(O)c2ncccc12 [TILIQUINOL] | > 30 µM |
| O=C1NCC2(CCN(CCc3ccccc3)CC2)O1 [FENSPIRIDE] | > 30 µM |
| CN1CCCC(CN2c3ccccc3Sc3ccccc32)C1 (configuration not stated) [MEPAZINE] | > 30 µM |
| CC(C(=O)O)c1ccc(N2CC=CC2)c(Cl)c1 (configuration not stated) [PIRPROFEN] | 0.0325 µM |
| CCC1(c2cccc(O)c2)CCCCN(C)C1 (configuration not stated) [MEPTAZINOL] | > 30 µM |
| CN(Cc1cc(Br)cc(Br)c1N)C1CCCCC1 [BROMHEXINE] | > 30 µM |
| C[C@@H]1C[C@H]2[C@@H]3C[C@H](F)C4=CC(=O)C(Cl)=C[C@]4(C)[C@@]3(F)[C@@H](O)C[C@]2(C)[C@@]1(O)C(=O)CO [HALOMETASONE] | > 30 µM |

###

Below, each of the compounds is paired with its reported AC50 value.
- system_under_test: 5-hydroxytryptamine receptor 2B (Homo sapiens); further: assay procedure not described here
- Sequence (P41595 whole entry): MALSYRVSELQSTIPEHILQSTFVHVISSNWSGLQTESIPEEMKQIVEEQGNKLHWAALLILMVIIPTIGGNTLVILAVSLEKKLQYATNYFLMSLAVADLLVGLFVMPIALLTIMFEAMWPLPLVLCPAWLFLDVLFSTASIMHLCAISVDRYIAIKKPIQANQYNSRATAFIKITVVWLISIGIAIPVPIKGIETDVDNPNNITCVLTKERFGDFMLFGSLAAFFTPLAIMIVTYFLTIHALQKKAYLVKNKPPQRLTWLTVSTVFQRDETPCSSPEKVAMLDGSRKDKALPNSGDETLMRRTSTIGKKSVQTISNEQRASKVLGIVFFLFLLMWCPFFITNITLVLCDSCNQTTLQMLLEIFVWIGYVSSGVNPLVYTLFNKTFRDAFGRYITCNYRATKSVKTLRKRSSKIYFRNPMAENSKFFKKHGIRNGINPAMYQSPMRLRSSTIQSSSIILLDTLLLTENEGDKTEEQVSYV
- Type: functional, cell-based
measured_parameter: AC50

| compound | system_under_test | reading |
| --- | --- | --- |
| CN(C)c1ccc(C(=C2C=CC(=[N+](C)C)C=C2)c2ccc(N(C)C)cc2)cc1 | 5-hydroxytryptamine receptor 2B (Homo sapiens) | > 30 µM |
| NS(=O)(=O)c1cc2c(cc1Cl)NC(C1CC3C=CC1C3)NS2(=O)=O (stereo unspecified) [CYCLOTHIAZIDE] | 5-hydroxytryptamine receptor 2B (Homo sapiens) | > 30 µM |
| CCO[C@@H](Cc1ccc(OCCn2c(C)ccc2-c2ccc(SC)cc2)cc1)C(=O)O | 5-hydroxytryptamine receptor 2B (Homo sapiens) | > 30 µM |
| COc1cc(Nc2c(C#N)cnc3cc(OCCCN4CCN(C)CC4)c(OC)cc23)c(Cl)cc1Cl | 5-hydroxytryptamine receptor 2B (Homo sapiens) | > 30 µM |
| CC[C@@H]1/C=C(\C)C[C@H](C)C[C@H](OC)[C@H]2O[C@@](O)(C(=O)C(=O)N3CCCC[C@H]3C(=O)O[C@H](/C(C)=C/[C@@H]3CC[C@H](Cl)[C@H](OC)C3)[C@H](C)[C@@H](O)CC1=O)[C@H](C)C[C@@H]2OC | 5-hydroxytryptamine receptor 2B (Homo sapiens) | > 30 µM |
| C[C@@H]1C[C@H]2[C@@H]3CCC4=CC(=O)C=C[C@]4(C)[C@@]3(F)[C@@H](O)C[C@]2(C)[C@H]1C(=O)CO | 5-hydroxytryptamine receptor 2B (Homo sapiens) | > 30 µM |
